- assayed target: T1, RTL302 (empty two-domain HLA-DR2 RTL) (human)
- T1 construct: Two-domain MHC class II without antigenic peptide; also called empty DR2; DR2 (empty)
- T1 chain: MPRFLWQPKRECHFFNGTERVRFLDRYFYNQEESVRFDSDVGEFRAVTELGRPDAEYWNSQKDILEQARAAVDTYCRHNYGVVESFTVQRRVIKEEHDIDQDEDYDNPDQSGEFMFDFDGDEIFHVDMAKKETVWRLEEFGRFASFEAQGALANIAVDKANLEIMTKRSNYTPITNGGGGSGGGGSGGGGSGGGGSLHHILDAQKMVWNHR
- experimental protocol: ELISA, soluble purified Fab on immobilised biotinylated complex or peptide

| binder | binding result |
| --- | --- |
| Fab 1B11 (Fab, V domains shown, also called 1B11 Fab) VH: EVQLVQSGAEVKKPGASVRVSCKASGYTFTSYGISWVRQAPGQGLEWMGWISAYNGNTNYAQKLQGRVTMTTDTSTSTAYMELRSLRSDDTAVYYCARDIRAYGSGSYSRYYYYGMDVWGQGTTVTVSS VL: EIVLTQSPATLSVSPGERATLSCRASQNIGSILAWYQHKPGQAPRLLIYGASTRATGIPARFSGSGSGTEFTLTISSLQSDDFAVYYCQQYLYWPFTFGGGTKVEIKR | binds |
